Values compiled from patent US11459323B2.

A set of compounds tested on E. coli MG1655Δtol C, with measured MIC:

Study these solved cases before continuing.
# structure.as.smiles, test.value
rows = [
    ("CC1(C)[C@H](NC(=O)/C(=N\\OCCOc2ccc3c(c2)CN(C(=N)N)CC3)c2csc(N)n2)C(=O)N1OS(=O)(=O)O", "≤ 0.125 µg/mL"),
    ("CC1(C)[C@H](NC(=O)/C(=N\\OCCOc2ccc3c(c2)CCN(C(=N)NCCCN)C3)c2csc(N)n2)C(=O)N1OS(=O)(=O)O", "≤ 0.125 µg/mL"),
    ("CC1(C)[C@H](NC(=O)/C(=N\\OCCOc2ccc3c(c2)CCN(C(=N)N2CCNCC2)C3)c2csc(N)n2)C(=O)N1OS(=O)(=O)O", "≤ 0.125 µg/mL"),
    ("CC1(C)[C@H](NC(=O)/C(=N\\OCCOc2ccc3c(c2)CCN(C(=N)N)C3)c2csc(N)n2)C(=O)N1OS(=O)(=O)O", "≤ 0.0039 µg/mL"),
    ("CC1(C)[C@H](NC(=O)/C(=N\\OCCOc2ccc3c(c2)CCN(CCCN)C3)c2csc(N)n2)C(=O)N1OS(=O)(=O)O", "≤ 0.125 µg/mL"),
]

# context switch: different compound, same MIC
What MIC value was documented for this compound, `CC1(C)[C@H](NC(=O)/C(=N\OCCOc2ccc3c(c2)CCN(C(=N)NC2CCNCC2)C3)c2csc(N)n2)C(=O)N1OS(=O)(=O)O` ? ≤ 0.125 µg/mL

* * *

- System: Pseudomonas aeruginosa W9
- run.description: MIC on clinically isolated bacteria
- Format: cell-based
- condition.set: read-out: MIC
Listed here: items and their measured MIC.
Give a bare numeral; the unit µg/mL is implied.

Study these solved cases before continuing.
# compound, MIC / µg/mL
records = [
    ("C[C@H]1[C@H](NC(=O)/C(=N\\OC(C)(C)C(=O)O)c2csc(N)n2)C(=O)N1S(=O)(=O)O [Aztreonam, reference compound]", 32),
    ("CC1(C)[C@H](NC(=O)/C(=N\\O[C@@H](COc2ccc3c(c2)CN(C(=N)NOCCN)C3)C(=O)O)c2csc(N)n2)C(=O)N1OS(=O)(=O)O", 8),
]

What MIC value was documented for this compound, `CC1(C)[C@H](NC(=O)/C(=N\O[C@@H](COc2ccc3c(c2)CN(C(=N)N(CCN)CCN)C3)C(=O)O)c2csc(N)n2)C(=O)N1OS(=O)(=O)O` ? 16

* * *

Listed here: items and their measured bioavailability.
- run.description: Pharmacokinetic experiment of the compounds in mice
- Format: in vivo
- condition.set: mouse, plasma, 2 mg/kg; Male CD-1 mice, fasting, second section of Table 7 (intravenous injection), 2 mpk
Give a bare numeral; the unit % is implied.

# structure.as.smiles, test.value
records = [
    ("CC1(C)[C@H](NC(=O)/C(=N\\OCCOc2ccc3c(c2)CN(C(=N)NCCCN)C3)c2csc(N)n2)C(=O)N1OS(=O)(=O)O", 88.4),
    ("CC1(C)[C@H](NC(=O)/C(=N\\OCCOc2ccc3c(c2)CN(C(=N)N(CCCN)CCCN)C3)c2csc(N)n2)C(=O)N1OS(=O)(=O)O", 131),
    ("CC1(C)[C@H](NC(=O)/C(=N\\O[C@@H](COc2ccc3c(c2)CN(C(=N)NCCCN)C3)C(=O)O)c2csc(N)n2)C(=O)N1OS(=O)(=O)O", 93.3),
]

# context switch: different compound, same bioavailability
What bioavailability value was documented for this compound, `CC1(C)[C@H](NC(=O)/C(=N\O[C@@H](COc2ccc3c(c2)CN(C(=N)N(CCCN)CCCN)C3)C(=O)O)c2csc(N)n2)C(=O)N1OS(=O)(=O)O` ? 140
